System: IL-6-GFP PC-9
Protocol Details: cell viability (CCK-8 OD) relative to DMSO control (fraction of control); higher = more viable cells
Assay Context: compound concentration: 10 uM; treatment time: 48 h

{"Compound": "COc1cc(Nc2c(C#N)cnc3cc(OCCCN4CCN(C)CC4)c(OC)cc23)c(Cl)cc1Cl [Bosutinib (SKI-606)]", "cell viability": 0.429}
{"Compound": "NC(CCC(=O)NC(CS)C(=O)NCC(=O)O)C(=O)O (centres undefined)", "cell viability": 1.1}
{"Compound": "O=C(O)Cc1ccccc1Nc1c(Cl)cccc1Cl", "cell viability": 1.12}
{"Compound": "CN(C)C(=O)COC(=O)Cc1ccc(OC(=O)c2ccc(NC(=N)N)cc2)cc1.CS(=O)(=O)O [Camostat Mesilate]", "cell viability": 1.13}
